Reported EC50 values follow for various compounds
Experimental system: human PXR (Homo sapiens, UniProt O75469)
Assay remarks: PXR activation luciferase reporter assay, human PXR in HepG2-NTCP cells
Write down the numeric answer in µM and omit the unit.

Check out these entries, answers already filled in.
C[C@]12CCC(=O)C[C@@H]1CC[C@@H]1[C@@H]2CC[C@]2(C)C=CC[C@@H]12 ... 3.02
C[C@]12CC[C@@H]3c4cc(O)c(O)cc4CC[C@H]3[C@@H]1CCC2=O ... 3.63
NC(=O)N1c2ccccc2C2OC2c2ccccc21 (stereo not shown) [MI8, Carbamazepine epoxide] ... 81.3

Next item in the queue.
GET /value?item= C[C@@]12C=CC[C@H]1[C@@H]1CCC3=CC(=O)CC[C@]3(C)[C@H]1CC2 &field=EC50 returns 7.08

----------
Experimental system: human PXR (Homo sapiens, UniProt O75469)
Study conditions: human
Attribute measured: hPXR Efficacy
Give the value as a plain number.

Check out these entries, answers already filled in.
CCOP(=S)(OCC)Oc1nc(Cl)c(Cl)cc1Cl [MI10, Chlorpyrifos] ... 2.05
C[C@]12CCC(=O)C=C1CC[C@@H]1[C@@H]2CC[C@]2(C)C(=O)CC[C@@H]12 [AN7, 4-Androsten-3,17-dione] ... 0.59
CC(=O)[C@H]1CC[C@H]2[C@@H]3CC[C@@H]4CC(=O)CC[C@]4(C)[C@H]3CC[C@]12C [PR2, 5β-Pregnan-3,20-dione] ... 0.97
C[C@]12CC[C@@H](O)C[C@@H]1CC[C@@H]1[C@@H]2CC[C@]2(C)[C@@H](O)CC[C@@H]12 [AN1, 5α-Androstan-3α,17β-diol] ... 0.68
CCCCOC(=O)c1ccc(N)cc1 [MI4, n-Butyl-4-aminobenzoate] ... 1.35

GET /value?item= CC(=O)[C@H]1CC[C@H]2[C@@H]3CC[C@H]4C[C@H](O)CC[C@]4(C)[C@H]3CC[C@]12C [PR14, 5α-Pregnan-3α-ol-20-one] &field=hPXR Efficacy returns 0.46

GET /value?item= CC(C(=O)O)c1ccc(-c2ccccc2)c(F)c1 (stereo not drawn) [MI15, Flurbiprofen] &field=hPXR Efficacy returns 1.59

GET /value?item= C[C@]12CC[C@H]3[C@@H](CCC4=CC(=O)CC[C@@]43C)[C@@H]1CC[C@@H]2O [AN8, 4-Androsten-17β-ol-3-one] &field=hPXR Efficacy returns 0.22

----------
Reported pEC50 values follow for various molecules
Experimental system: human PXR (Homo sapiens, UniProt O75469)
Sequence (O75469 1-434): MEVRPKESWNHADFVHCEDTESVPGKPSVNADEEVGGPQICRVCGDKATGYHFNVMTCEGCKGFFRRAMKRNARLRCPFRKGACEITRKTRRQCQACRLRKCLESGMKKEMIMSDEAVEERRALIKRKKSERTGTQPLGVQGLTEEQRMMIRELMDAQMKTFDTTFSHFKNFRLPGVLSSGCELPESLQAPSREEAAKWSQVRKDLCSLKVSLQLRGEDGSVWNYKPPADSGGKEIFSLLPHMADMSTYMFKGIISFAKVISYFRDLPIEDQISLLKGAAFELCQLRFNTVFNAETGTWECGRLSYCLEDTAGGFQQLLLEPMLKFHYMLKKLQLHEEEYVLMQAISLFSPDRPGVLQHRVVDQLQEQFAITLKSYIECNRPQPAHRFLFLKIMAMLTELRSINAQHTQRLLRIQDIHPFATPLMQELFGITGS
Assay remarks: PXR activation luciferase reporter assay, human PXR in HepG2-NTCP cells
Study conditions: hPXR Activity, -log(EC50), EC50 in molar units, activation of human PXR
When answering, recall that pEC50 equals minus log10 of the concentration in mol/L, and write that number alone.

Check out these entries, answers already filled in.
NC(=O)N1c2ccccc2CC(=O)c2ccccc21 [MI23, Oxcarbazepine] ... 4.74
CC[C@H](C)C(=O)O[C@H]1CCC=C2C=C[C@H](C)[C@H](CC[C@@H]3C[C@@H](O)CC(=O)O3)[C@H]21 ... 5.23
C[C@@]12CCC[C@H]1[C@@H]1CC[C@@H]3C[C@H](O)CC[C@]3(C)[C@H]1CC2 ... 5.85
CC(=O)[C@H]1CC[C@H]2[C@@H]3CC[C@H]4C[C@H](O)CC[C@]4(C)[C@H]3CC[C@]12C ... 5.38

Summary: C[C@@]12CCC[C@H]1[C@@H]1CC[C@H]3C[C@H](O)CC[C@]3(C)[C@H]1CC2 , human PXR (Homo sapiens, UniProt O75469), pEC50 = 5.20

Summary: C[C@]12CC[C@@H]3c4ccc(O)cc4CC[C@H]3[C@@H]1CC[C@@H]2O , human PXR (Homo sapiens, UniProt O75469), pEC50 = 4.80

Summary: NC(=O)N1c2ccccc2C=Cc2ccccc21 [MI7, Carbamazepine] , human PXR (Homo sapiens, UniProt O75469), pEC50 = 4.20

Summary: C[C@]12CC[C@@H](O)C[C@@H]1CC[C@@H]1[C@@H]2CC[C@]2(C)[C@@H](O)CC[C@@H]12 , human PXR (Homo sapiens, UniProt O75469), pEC50 = 5.38

Summary: CC1=C(C/C=C(\C)CCC[C@H](C)CCC[C@H](C)CCCC(C)C)C(=O)c2ccccc2C1=O , human PXR (Homo sapiens, UniProt O75469), pEC50 = 4.99

Summary: CC1=C(/C=C/C(C)=C/C=C/C(C)=C/C=C/C=C(C)/C=C/C=C(C)/C=C/C2=C(C)CCCC2(C)C)C(C)(C)CCC1 , human PXR (Homo sapiens, UniProt O75469), pEC50 = 5.46

Summary: C[C@]12CCC(=O)C=C1CC[C@@H]1[C@@H]2[C@@H](O)C[C@]2(C=O)[C@@H](C(=O)CO)CC[C@@H]12 , human PXR (Homo sapiens, UniProt O75469), pEC50 = 4.26

Summary: CCCOC(=O)c1ccc(O)cc1 [MI27, n-Propyl-4-hydroxybenzoate] , human PXR (Homo sapiens, UniProt O75469), pEC50 = 4.51

----------
Tested on: HepG2 cells
Attribute measured: Toxicity

C[C@]12CCC(=O)C=C1CC[C@@H]1[C@@H]2CC[C@@]2(C)[C@H]1CC[C@]2(O)C(=O)CO ... None
C[C@H](O)[C@H]1CC[C@H]2[C@@H]3CC[C@H]4C[C@H](O)CC[C@]4(C)[C@H]3CC[C@]12C ... None
Cc1cc(O)cc2c1O[C@](C)(CCC[C@H](C)CCC[C@H](C)CCCC(C)C)CC2 ... 100 µM

----------
Experimental system: rat PXR (Rattus norvegicus, UniProt Q9R1A7)
Sequence (Q9R1A7 whole entry): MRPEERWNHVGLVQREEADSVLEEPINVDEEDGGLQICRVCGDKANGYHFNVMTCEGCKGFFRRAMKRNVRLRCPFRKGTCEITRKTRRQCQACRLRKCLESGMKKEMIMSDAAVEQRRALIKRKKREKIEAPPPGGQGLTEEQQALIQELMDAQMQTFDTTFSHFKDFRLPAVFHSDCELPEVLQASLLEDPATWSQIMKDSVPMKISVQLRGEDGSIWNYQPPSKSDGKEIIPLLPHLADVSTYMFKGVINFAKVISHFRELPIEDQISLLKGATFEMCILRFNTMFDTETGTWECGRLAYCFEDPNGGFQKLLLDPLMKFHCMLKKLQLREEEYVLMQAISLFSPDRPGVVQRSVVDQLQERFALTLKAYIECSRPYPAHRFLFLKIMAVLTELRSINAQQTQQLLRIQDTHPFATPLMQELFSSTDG
Study conditions: -log(EC50), EC50 in molar units
Attribute measured: Rat PXR Activity

Check out these entries, answers already filled in.
c1ccc2c(c1)cc1ccc3cccc4ccc2c1c34 [MI3, Benzo [a]pyren] ... 4.85
C[C@H](CCC(O)C(CO)COS(=O)(=O)O)[C@H]1CC[C@H]2[C@@H]3[C@H](O)C[C@@H]4C[C@H](O)CC[C@]4(C)[C@H]3C[C@H](O)[C@]12C (stereo partly drawn) ... 4.40
CC(C)CCC[C@@H](C)[C@H]1CC[C@H]2[C@@H]3[C@H](O)C=C4C[C@@H](O)CC[C@]4(C)[C@H]3CC[C@]12C [BI047, 7α-Hydroxycholesterol] ... No effect
CC(=O)[C@H]1[C@H](C#N)C[C@H]2[C@@H]3CC=C4C[C@@H](O)CC[C@]4(C)[C@H]3CC[C@@]21C ... 6.20 (ε = 1.0)
C[C@H](CCC(=O)O)[C@H]1CC[C@H]2[C@@H]3[C@@H](O)[C@@H](O)[C@@H]4C[C@H](O)CC[C@]4(C)[C@H]3CC[C@]12C ... No effect

Next item in the queue.
GET /value?item= C[C@H](CCC(=O)NCCS(=O)(=O)O)[C@H]1CC[C@H]2[C@@H]3[C@@H](O)[C@@H](O)[C@@H]4C[C@H](O)CC[C@]4(C)[C@H]3CC[C@]12C &field=Rat PXR Activity returns No effect

----------
Experimental system: human PXR (Homo sapiens)
Assay remarks: PXR activation luciferase reporter assay, human PXR in HepG2-NTCP cells
Study conditions: -log(EC50), EC50 in molar units, activation of human PXR
Reported hPXR Activity values follow for various compounds
Give the value as a plain number.

GET /value?item= C[C@H](O)[C@H]1CC[C@H]2[C@@H]3CC[C@@H]4C[C@H](O[C@@H]5O[C@H](C(=O)O)[C@@H](O)[C@H](O)[C@H]5O)CC[C@]4(C)[C@H]3CC[C@]12C [PR16, 5β-Pregnan-3α,20α-diol-3-glucosiduronate] &field=hPXR Activity returns 4.26

----------
Experimental system: zebrafish PXR (Danio rerio, UniProt A5WYG8)
Sequence (A5WYG8 144-430): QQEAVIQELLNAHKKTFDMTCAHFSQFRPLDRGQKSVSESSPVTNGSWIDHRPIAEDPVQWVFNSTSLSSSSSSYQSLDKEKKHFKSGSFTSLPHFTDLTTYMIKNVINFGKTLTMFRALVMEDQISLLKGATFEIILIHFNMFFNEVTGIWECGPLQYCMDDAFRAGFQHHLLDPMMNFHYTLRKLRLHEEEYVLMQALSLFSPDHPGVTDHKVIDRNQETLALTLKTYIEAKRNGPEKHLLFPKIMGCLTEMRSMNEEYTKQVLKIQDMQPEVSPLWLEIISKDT
Study conditions: -log(EC50), EC50 in molar units, activation of zebrafish PXR
Attribute measured: zfPXR Activity

C[C@H](CCC(=O)O)[C@H]1CC[C@H]2[C@@H]3[C@H](O)C[C@H]4CC(=O)CC[C@]4(C)[C@H]3C[C@H](O)[C@]12C [BI33, 5α-Cholanic acid-7α,12α-diol-3-one] ... None
CC(=O)[C@H]1CC[C@H]2[C@@H]3CC[C@@H]4C[C@H](O)CC[C@]4(C)[C@H]3CC[C@]12C [PR25, 5β-Pregnan-3α-ol-20-one] ... 6.64
CC(=O)[C@H]1CC[C@H]2[C@@H]3CCC4=CC(=O)CC[C@]4(C)[C@H]3CC[C@]12C [PR7, 4-Pregnen-3,20-dione] ... None
CC1=C(C/C=C(\C)CCC[C@H](C)CCC[C@H](C)CCCC(C)C)C(=O)c2ccccc2C1=O [MI44, Vitamin K1] ... None
C[C@H](CC(=O)O)[C@H]1CC[C@H]2[C@@H]3[C@H](O)C[C@@H]4C[C@H](O)CC[C@]4(C)[C@H]3C[C@H](O)[C@]12C [BI27, 23-Norcholic acid] ... None
C[C@H](CCCO)[C@H]1CC[C@H]2[C@@H]3[C@H](O)C[C@H]4C[C@H](O)CC[C@]4(C)[C@H]3C[C@H](O)[C@]12C [BI29, 5α-Cholan-3α,7α,12α,-24-tetrol] ... None

GET /value?item= C[C@]12CC[C@@H](O)C[C@H]1CC[C@@H]1[C@@H]2C(=O)C[C@@]2(C)[C@H]1CC[C@]2(O)[C@@H](O)CO [PR18, 5β-Pregnan-3α,17,20α-21-tetrol-11-one] &field=zfPXR Activity returns 4.34

GET /value?item= CC(C)CCC[C@@H](C)[C@H]1CC[C@H]2[C@@H]3[C@H](O)C=C4C[C@@H](O)CC[C@]4(C)[C@H]3CC[C@]12C [BI047, 7α-Hydroxycholesterol] &field=zfPXR Activity returns None

GET /value?item= C[C@H](CC(=O)O)[C@H]1CC[C@H]2[C@@H]3CC[C@@H]4C[C@H](O)CC[C@]4(C)[C@H]3C[C@H](O)[C@]12C [BI26, 23-Nordeoxycholic acid] &field=zfPXR Activity returns None

GET /value?item= C[C@]12CC[C@@H]3c4ccc(O)cc4CC[C@H]3[C@@H]1C[C@@H](O)[C@@H]2O [ES3, 1,3,5(10)-Estratrien-3,16α,17β-triol] &field=zfPXR Activity returns None
